assay_target: T1, human IL-1β (human, UniProt P01584 117-269)
T1 construct: antigen of the ABT2 dAbs; also called hIL-1β; IL-1 beta
assay_overview: IC50 column of Table 63; receptor binding assay presumed

{"binder": "ABT2-65-23 (other, VH dAb) VH: EVQLLESGGGLVQPGESLRLSCAASGFTFKVYPMGWVRQAPGKGLEWVSSISAMGNRTYYADSVKGRFTISRDDSKNTLYLQMNSLRAEDTAVYYCAKNLVRTQSKMWMFDYWGQGTLVTVSS", "IC50": "0.8 µM"}
{"binder": "ABT2-65-7 (other, VH dAb) VH: EVQLLESGGGLVQPGGSLRLSCAASGFTFEDYQMGWVRQAPGKGLEWVSSISATGNRTYYADSVKGRFTISRDDSKNTLYLQMNSLRAEDTAVYYCAQNLVRTRIKMWMFDYWGQGTLVTVSS", "IC50": "0.03 µM"}
{"binder": "ABT2-65-141 (other, VH dAb) VH: EVQLLESGGGLVQPGGSLRLSCAASGFTFEDYQMGWVRQAPGKGLEWVSSISAMGNRTYYADSVKGRFTISRDDSKNTLYLQMNSLRAEDTAVYYCAENLVRIKQTKWMFDYWGQGTLVTVSS", "IC50": "0.005 µM"}
{"binder": "ABT2-65-79 (other, VH dAb) VH: EVQLLESGGGLVQPGGSLRLSCVASGFTFEDYQMGWVRQAPGKGLEWVSSISAMGNRTYYADSVKGRFTISRDDSKNTLYLQMNSLRAGDTAVYYCAQNLVRLGRSRWMFDYWGQGTMVTVSS", "IC50": "0.006 µM"}
{"binder": "ABT2-65-166 (other) VH: EVQLLESGGGLVQPGGSLRLSCAASGFTFEDYQMGWVRQAPGKGLEWVSSISAMGGRTYYADSVKGRFTISRDNSKNTLYLQMNSLRAEDTAVYYCAQNLVRLGRSRWMFDYWGQGTLVTVSS", "IC50": "0.004 µM"}
{"binder": "ABT2-65-39 (other, VH dAb) VH: EVQLLESGGGLVQPGGSLRLSCAASGFTFEDYQMGWVRQAPGKGLEWVSSISAMGNRTYYADSVKGRFTISRDDSKNTLYLQMNSLRAEDTAVYYCAGNLVRTQSKMWMFDYWGQGTLVTVSS", "IC50": "0.3 µM"}
{"binder": "ABT2-65-137 (other, VH dAb) VH: EVQLLESGGGLVQPGGSLRLSCAASGFTFEDYQMGWVRQAPGKGLEWVSSISAMGNRTYYADSVKGRFTISRDDSKNTLYLQMNSLRAEDTAVYYCAENLVRTAKRRWMFDYWGQGTLVTVSS", "IC50": "0.005 µM"}
{"binder": "ABT2-65-26 (other, VH dAb) VH: EVQLLESGGGLVQPGGSLRLSCAASGFTFEDYQMGWVRQAPGKGLEWVSSISAMGNRTYYADSVKGRFTISRDDSKNTLYLQMNSLRAEDTAVYYCAQNLVLVRSGYWMFDYWGQGTLVTVSS", "IC50": "0.02 µM"}
{"binder": "ABT2-65-75 (other, VH dAb) VH: EVQLLESGGGLVQHGGSLRLSCVASGFTFEDYQMGWVRQAPGKGLEWVSSISAMGNRTYYADSVKGRFTISRDDSKNTLYLQMNSLRAEDTAVYYCAQNLVRLGKSRWMFDYWGQGTLVTVSS", "IC50": "0.03 µM"}
